Molecular target: UniProt P11511
Test: Aromatase inhibition assay
Assay type: biochemical
measure: Anti-aromatase activity (in words)

Cn1c(-c2ccc(Cl)c(Cl)c2)cc2cc([N+](=O)[O-])ccc21 [Compound 31a] | not active
c1ccc(-c2nc3ccccc3[nH]2)cc1 [Compound 34, 2-phenylbenzimidazole, reference compound] | not active

----------
Target protein (sequence): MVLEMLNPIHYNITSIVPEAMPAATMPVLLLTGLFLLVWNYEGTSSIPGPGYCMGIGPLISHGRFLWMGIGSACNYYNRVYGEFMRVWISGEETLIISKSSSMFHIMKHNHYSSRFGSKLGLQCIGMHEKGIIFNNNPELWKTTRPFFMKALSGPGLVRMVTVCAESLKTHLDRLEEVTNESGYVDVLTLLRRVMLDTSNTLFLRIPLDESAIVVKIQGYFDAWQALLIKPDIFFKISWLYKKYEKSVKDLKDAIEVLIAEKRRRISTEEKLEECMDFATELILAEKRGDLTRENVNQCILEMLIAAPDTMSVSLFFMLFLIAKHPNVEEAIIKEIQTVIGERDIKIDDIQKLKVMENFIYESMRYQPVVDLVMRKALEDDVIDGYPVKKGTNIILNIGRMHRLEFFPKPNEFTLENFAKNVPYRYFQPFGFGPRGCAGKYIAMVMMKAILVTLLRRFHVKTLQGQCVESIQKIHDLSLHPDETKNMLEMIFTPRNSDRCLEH
measure: IC50 (µM)
The response must be a number in µM with no trailing unit.

Consider N#Cc1c(-c2ccccc2)[nH]c2ccccc12 [Compound 2d, 3-cyano-2-phenylindole] . Its measured IC50 is 1.61
